Below is a list of entries, each paired with its recorded PK parameters Cinf value.
Assay: Pharmacokinetics in SCID mice
Format: in vivo
Details: 25 mg/kg IV bolus, concentration at the end of bolus administration
Measure: PK parameters Cinf (µM)

Compound	Measure	Numeric readout
Cc1c(N(C(=O)c2cc(-c3cc4c(cc3C(=O)N3Cc5ccccc5C[C@H]3CN3CCCCC3)CN(C(=O)Cc3ccc(OCCC5CCOCC5)cc3F)CC4)n(C)c2C)c2ccc(O)cc2)cc(C#N)n1C [Example 34]	PK parameters Cinf	8.2
Cc1c(N(C(=O)c2cc(-c3cc4c(cc3C(=O)N3Cc5ccccc5C[C@H]3C)CN(C(=O)Cc3ccc(OCCN5CCO[C@H](C)C5)cc3)CC4)n(C)c2C)c2ccc(O)cc2)cc(C#N)n1C [Example 56]	PK parameters Cinf	48.5
Cc1c(N(C(=O)c2cc(-c3cc4c(cc3C(=O)N3Cc5ccccc5C[C@H]3C)CN(S(=O)(=O)Cc3ccccc3)CC4)n(C)c2C)c2ccc(O)cc2)cc(C#N)n1C [Example 14]	PK parameters Cinf	13.5
